The measured values listed here are drawn from ChEMBL document CHEMBL1130071.

Entries annotated with measured Selectivity ratio
- Subject of test: Delta-type opioid receptor (Homo sapiens) (UniProt P41143)
- Sequence (P41143 whole entry): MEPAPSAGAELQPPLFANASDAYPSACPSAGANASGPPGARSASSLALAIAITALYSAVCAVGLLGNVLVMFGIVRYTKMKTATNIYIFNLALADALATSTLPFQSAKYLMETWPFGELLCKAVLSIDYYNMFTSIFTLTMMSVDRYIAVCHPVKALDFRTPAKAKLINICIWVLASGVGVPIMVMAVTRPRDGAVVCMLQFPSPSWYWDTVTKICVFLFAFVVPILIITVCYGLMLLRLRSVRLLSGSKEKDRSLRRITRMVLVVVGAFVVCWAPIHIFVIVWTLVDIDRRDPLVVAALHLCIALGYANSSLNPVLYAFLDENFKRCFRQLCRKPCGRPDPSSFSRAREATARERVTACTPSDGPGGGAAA
- Method summary: Selectivity ratio measured as the mu Ki to that of delta Ki values.
Number only, please.

[
  {
    "Compound": "CCCCc1c(C)[nH]c2c1C[C@@]1(O)C3Cc4ccc(O)c5c4C1(CCN3CC1CC1)[C@H]2O5 (some centres undefined)",
    "Selectivity ratio": 4.8
  }
]

IN: Tell me the measured Selectivity ratio of Cc1[nH]c2c(c1Cc1ccccc1)C[C@@]1(O)C3Cc4ccc(O)c5c4C1(CCN3CC1CC1)[C@H]2O5 (some centres undefined) , please.
OUT: 80

IN: Tell me the measured Selectivity ratio of Cc1[nH]c2c(c1C)C[C@@]1(O)C3Cc4ccc(O)c5c4C1(CCN3CC1CC1)[C@H]2O5 (some centres undefined) , please.
OUT: 95

IN: Tell me the measured Selectivity ratio of Oc1ccc2c3c1O[C@H]1c4[nH]cc(-c5ccccc5)c4C[C@@]4(O)C(C2)N(CC2CC2)CCC314 (some centres undefined) , please.
OUT: 7.8

====

- Subject of test: Mu-type opioid receptor (Mus musculus, UniProt P42866)
- Sequence (P42866 whole entry): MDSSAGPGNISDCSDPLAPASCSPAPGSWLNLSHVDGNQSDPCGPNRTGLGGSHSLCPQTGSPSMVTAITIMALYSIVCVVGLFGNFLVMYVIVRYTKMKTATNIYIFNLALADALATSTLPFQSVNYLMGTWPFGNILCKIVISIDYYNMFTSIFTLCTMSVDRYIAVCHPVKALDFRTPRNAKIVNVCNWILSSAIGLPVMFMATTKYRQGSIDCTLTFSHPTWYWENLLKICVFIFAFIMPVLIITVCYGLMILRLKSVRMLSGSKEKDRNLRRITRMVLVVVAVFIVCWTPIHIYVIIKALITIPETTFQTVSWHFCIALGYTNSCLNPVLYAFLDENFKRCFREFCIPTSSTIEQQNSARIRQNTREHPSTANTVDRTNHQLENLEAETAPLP
Mark criterion met only for Ki values smaller than 0.03 µM; exact matches and larger values are criterion not met.

[
  {
    "Compound": "Cc1[nH]c2c(c1C)C[C@@]1(O)C3Cc4ccc(O)c5c4C1(CCN3CC1CC1)[C@H]2O5 (stereo not given in full)",
    "Group label": "criterion not met"
  }
]

IN: I'd appreciate it if you could check whether CCCCc1c(C)[nH]c2c1C[C@@]1(O)C3Cc4ccc(O)c5c4C1(CCN3CC1CC1)[C@H]2O5 (stereo not given in full) has Ki smaller than 0.03 µM.
OUT: criterion not met

IN: I'd appreciate it if you could check whether Oc1ccc2c3c1O[C@H]1c4[nH]cc(-c5ccccc5)c4C[C@@]4(O)C(C2)N(CC2CC2)CCC314 (stereo not given in full) has Ki smaller than 0.03 µM.
OUT: criterion met

IN: I'd appreciate it if you could check whether Cc1[nH]c2c(c1Cc1ccccc1)C[C@@]1(O)C3Cc4ccc(O)c5c4C1(CCN3CC1CC1)[C@H]2O5 (stereo not given in full) has Ki smaller than 0.03 µM.
OUT: criterion met

IN: I'd appreciate it if you could check whether `Oc1ccc2c3c1O[C@H]1c4[nH]c5ccccc5c4C[C@@]4(O)[C@@H](C2)N(CC2CC2)CC[C@]314` has Ki smaller than 0.03 µM.
OUT: criterion met

====

Entries annotated with measured Ke
- Subject of test: Delta-type opioid receptor (Mus musculus)
- Method summary: Activity against Opioid receptor delta 1 on electrically stimulated mouse vas deferens using DADLE as agonist
- Type: functional, tissue-based
Answer with a number only, understood to be in nM.

Some solved cases for reference:
[
  {
    "Compound": "CCCCc1c(C)[nH]c2c1C[C@@]1(O)C3Cc4ccc(O)c5c4C1(CCN3CC1CC1)[C@H]2O5 (stereo partly specified)",
    "Ke, nM": 6.7
  },
  {
    "Compound": "CCCCc1c(CC(C)C)[nH]c2c1C[C@@]1(O)C3Cc4ccc(O)c5c4C1(CCN3CC1CC1)[C@H]2O5 (stereo partly specified)",
    "Ke, nM": 11.4
  },
  {
    "Compound": "Cc1[nH]c2c(c1C)C[C@@]1(O)C3Cc4ccc(O)c5c4C1(CCN3CC1CC1)[C@H]2O5 (stereo partly specified)",
    "Ke, nM": 14.8
  },
  {
    "Compound": "Cc1c(CC(C)C)[nH]c2c1C[C@@]1(O)C3Cc4ccc(O)c5c4C1(CCN3CC1CC1)[C@H]2O5 (stereo partly specified)",
    "Ke, nM": 3.3
  },
  {
    "Compound": "Oc1ccc2c3c1O[C@H]1c4[nH]ccc4C[C@@]4(O)C(C2)N(CC2CC2)CCC314 (stereo partly specified)",
    "Ke, nM": 3.2
  }
]

IN: Tell me the measured Ke of Cc1[nH]c2c(c1Cc1ccccc1)C[C@@]1(O)C3Cc4ccc(O)c5c4C1(CCN3CC1CC1)[C@H]2O5 (stereo partly specified) , please.
OUT: 2.1
